measurement-target: Phosphodiesterase 4 (Homo sapiens, UniProt P27815+Q08499+Q07343+Q08493)
assay-method-text: Inhibition of Phosphodiesterase 4 (PDE-4) from human U937 cells
Format: cell-based
particulars: u-937
Lab note: compare IC50 with 200 nM, writing condition met if less and condition not met if equal or more.

[
  {
    "smiles-text": "COc1ccc(C(=O)Nc2c(Cl)cncc2Cl)c2[nH]c(C(F)(F)F)nc12",
    "qualitative-label": "condition met"
  },
  {
    "smiles-text": "COc1ccc(C(=O)Nc2c(Cl)cncc2Cl)c2cc(C(C)=O)oc12",
    "qualitative-label": "condition met"
  },
  {
    "smiles-text": "COc1ccc(C(=O)Nc2ccncc2)c2cccnc12",
    "qualitative-label": "condition not met"
  },
  {
    "smiles-text": "COc1ccc(C(=O)Nc2ccncc2Cl)c2cccnc12",
    "qualitative-label": "condition met"
  },
  {
    "smiles-text": "COc1ccc(C(=O)Nc2c(Cl)cncc2Cl)c2cccnc12",
    "qualitative-label": "condition met"
  },
  {
    "smiles-text": "COc1ccc(C(=O)Nc2c(Cl)cncc2Cl)c2c1nc(C(C)=O)n2C",
    "qualitative-label": "condition not met"
  },
  {
    "smiles-text": "COc1ccc(C(=O)Nc2c(Cl)cncc2Cl)c2c1nc(C(F)(F)F)n2C",
    "qualitative-label": "condition not met"
  }
]
